Test: Selectivity index, ratio of CC50 for cytotoxicity against human A549 cells assessed as reduction in cell viability incubated for 48 hrs by alamarBlue assay to IC50 for antiviral activity against Human adenovirus 5 infected in 293beta5 cells assessed as inhibition of plaque formation incubated for 7 days by GFP reporter gene assay
Type: toxicity, cell-based
Details: read-out: Ratio CC50/IC50
recorded_metric: selectivity ratio at 48 h

>>> assay_value("CC(C)[C@H](NC(=O)c1cc(Cl)ccc1O)C(=O)Nc1ccc([N+](=O)[O-])cc1Cl")
444
>>> assay_value("O=C(Nc1ccc(NCc2ccc(O)nc2)cc1Cl)c1cc(Cl)ccc1O")
126
>>> assay_value("O=C(Nc1ccc(NC2CCCC2)cc1)c1cc(Cl)ccc1O")
3.9
>>> assay_value("CN(C)c1ccc(NC(=O)c2cc(Cl)ccc2O)c(Cl)c1")
44.3
>>> assay_value("CC(C)(C)OC(=O)N1CCC(Nc2ccc(NC(=O)c3cc(Cl)ccc3O)c(Cl)c2)CC1")
82.6
>>> assay_value("O=C(Nc1ccc(NCc2ccc(F)cc2)cc1Cl)c1cc(Cl)ccc1O")
16
>>> assay_value("CN(C)c1ccc(CNc2ccc(NC(=O)c3cc(Cl)ccc3O)c(Cl)c2)cc1")
9
>>> assay_value("O=C(Nc1ccc(NCc2ccncc2)cc1Cl)c1cc(Cl)ccc1O")
24.6
>>> assay_value("O=C(Nc1cc(NC2CCCC2)ccc1F)c1cc(Cl)ccc1O")
32.8
>>> assay_value("O=C(Nc1ccc(NCC2CCCC2)cc1Cl)c1cc(Cl)ccc1O")
17.3
>>> assay_value("CCCCCCC(C)Nc1ccc(NC(=O)c2cc(Cl)ccc2O)c(Cl)c1 (stereo not given)")
73.4
>>> assay_value("O=C(Nc1ccc(NCc2cc(C(F)(F)F)cc(C(F)(F)F)c2)cc1Cl)c1cc(Cl)ccc1O")
82.9
>>> assay_value("O=C(Nc1ccc(NC2CCCC2)c(Cl)c1)c1cc(Cl)ccc1O")
20.1
>>> assay_value("O=C(NCc1ccc(NC2CCCC2)cc1Cl)c1cc(Cl)ccc1O")
3.6
>>> assay_value("O=C(Nc1ccc(NCc2cc(Cl)cc(C(F)(F)F)c2)cc1Cl)c1cc(Cl)ccc1O")
17.3
